TESTED_ON: human recombinant serotonin (5-Hydroxytryptamine) 5-HT6 receptor (Homo sapiens)
Construct: expressed in transfected cells; host or cells: HeLa
Sequence (P50406 whole entry): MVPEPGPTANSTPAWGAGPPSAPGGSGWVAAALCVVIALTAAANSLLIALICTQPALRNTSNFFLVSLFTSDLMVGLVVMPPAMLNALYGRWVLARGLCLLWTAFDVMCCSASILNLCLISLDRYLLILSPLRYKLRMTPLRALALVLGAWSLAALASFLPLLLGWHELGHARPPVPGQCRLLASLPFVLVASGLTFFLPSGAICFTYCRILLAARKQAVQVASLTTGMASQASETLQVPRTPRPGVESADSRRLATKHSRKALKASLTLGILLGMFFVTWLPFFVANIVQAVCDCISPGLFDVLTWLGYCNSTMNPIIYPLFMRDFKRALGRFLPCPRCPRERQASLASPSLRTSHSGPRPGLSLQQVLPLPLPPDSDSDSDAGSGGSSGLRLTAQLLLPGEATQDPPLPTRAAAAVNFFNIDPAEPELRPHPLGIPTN
PROTOCOL_DESCRIPTION: Serotonin 5-HT6 radioligand binding ([3H]LSD)
EXPERIMENTAL_PARAMETERS: compound at 0.1 μM; read-out: Percentage inhibition of ligand binding, Serotonin (0.1 μM) 5-HT6
Listing of recorded inhibition at 0.1 µM by entry.
# output: bare number, implied unit %

Which measured inhibition at 0.1 µM belongs to Cc1cc(CCc2ccc(C)nc2)c2c(c1)c1c(n2C)CCN(C)C1 , tested on human recombinant serotonin (5-Hydroxytryptamine) 5-HT6 receptor (Homo sapiens)?
2

Queued: C/C(=C\c1cc(C)cc2c3c(n(C)c12)CCN(C)C3)c1ccncc1
-6

Queued: Cc1cc(-c2ccncc2)c2c(c1)c1c(n2C)CCN(C)C1
-2

Queued: Cc1cc(C#Cc2cccs2)c2[nH]c3c(c2c1)CN(C)CC3
15

Queued: C/C(=C\c1cc(C)cc2c3c(n(C)c12)CCN(C)C3)c1ccc(C)nc1
11

Queued: Cc1ccc(C#Cc2cc(Cl)cc3c4c(n(C)c23)CCN(C)C4)cn1
6

Queued: Cc1cc(/C=C/c2ccc(C)nc2)c2c(c1)c1c(n2C)CCN(C)C1
10

Queued: Cc1cc(C#Cc2ccncc2)c2c(c1)c1c(n2C)CCN(C)C1
5

Queued: CN1CCc2[nH]c3c(N(C)Cc4ccccc4)cccc3c2C1
44

###

TESTED_ON: human recombinant serotonin (5-Hydroxytryptamine) 5-HT5A receptor (Homo sapiens, UniProt P47898)
Construct: expressed in transfected cells; host or cells: CHO-K1
Sequence (P47898 whole entry): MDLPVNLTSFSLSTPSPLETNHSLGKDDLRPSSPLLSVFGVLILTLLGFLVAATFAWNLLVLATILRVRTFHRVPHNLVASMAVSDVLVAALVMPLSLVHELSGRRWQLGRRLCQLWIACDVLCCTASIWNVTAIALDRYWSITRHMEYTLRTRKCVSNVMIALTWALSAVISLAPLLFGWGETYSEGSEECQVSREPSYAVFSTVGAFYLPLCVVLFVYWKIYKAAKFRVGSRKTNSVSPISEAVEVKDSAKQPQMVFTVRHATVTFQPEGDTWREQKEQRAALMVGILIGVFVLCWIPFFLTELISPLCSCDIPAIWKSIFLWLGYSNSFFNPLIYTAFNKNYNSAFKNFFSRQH
PROTOCOL_DESCRIPTION: Serotonin 5-HT5A radioligand binding ([3H]LSD)
EXPERIMENTAL_PARAMETERS: compound at 0.1 μM; read-out: Percentage inhibition of ligand binding, Serotonin (0.1 μM) 5-HT5A
Listing of recorded inhibition at 0.1 µM by entry.
# output: bare number, implied unit %

Would you please look over these solved cases?
C/C(=C\c1cc(C)cc2c3c(n(C)c12)CCN(C)C3)c1ccc(C)nc1	11
Cc1cc(CCc2ccc(C)nc2)c2c(c1)c1c(n2C)CCN(C)C1	15
Cc1cc(C#Cc2ccc(C)nc2)c2c(c1)c1c(n2C)CCN(C)C1	-21

Report inhibition at 0.1 µM for Cc1cc(/C=C/c2ccc(C)nc2)c2c(c1)c1c(n2C)CCN(C)C1 please.
-7

Queued: Cc1cc(-c2ccc(F)cc2)c2c(c1)c1c(n2C)CCN(C)C1
-4

Queued: C#Cc1cc(C)cc2c3c(n(C)c12)CCN(C)C3
1

Queued: C/C(=C\c1cc(C)cc2c3c(n(C)c12)CCN(C)C3)c1ccncc1
-19

Queued: Cc1cc(C#Cc2ccncc2)c2c(c1)c1c(n2C)CCN(C)C1
15

Queued: Cc1cc(-c2ccncc2)c2c(c1)c1c(n2C)CCN(C)C1
6

###

Listing of recorded inhibition at 1 µM by entry.
TESTED_ON: human recombinant dopamine D2L receptor (Homo sapiens, UniProt P14416)
Construct: expressed in transfected cells; host or cells: CHO
Sequence (P14416 whole entry): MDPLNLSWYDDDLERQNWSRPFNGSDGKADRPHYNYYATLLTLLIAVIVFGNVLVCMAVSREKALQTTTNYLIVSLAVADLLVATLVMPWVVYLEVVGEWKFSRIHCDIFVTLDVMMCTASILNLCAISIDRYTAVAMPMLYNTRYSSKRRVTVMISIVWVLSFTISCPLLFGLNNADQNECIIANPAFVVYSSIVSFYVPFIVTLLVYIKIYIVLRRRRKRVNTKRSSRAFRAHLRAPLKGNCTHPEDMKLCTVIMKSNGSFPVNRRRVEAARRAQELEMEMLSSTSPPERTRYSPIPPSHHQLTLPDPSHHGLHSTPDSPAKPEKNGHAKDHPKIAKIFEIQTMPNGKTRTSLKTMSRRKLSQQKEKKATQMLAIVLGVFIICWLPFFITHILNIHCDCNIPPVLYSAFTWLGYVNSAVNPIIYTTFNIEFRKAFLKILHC
PROTOCOL_DESCRIPTION: Dopamine D2L radioligand binding ([3H]Spiperone)
EXPERIMENTAL_PARAMETERS: compound at 1 μM; read-out: Percentage inhibition of ligand binding, Dopamine (1 μM) D2L
# output: bare number, implied unit %

Would you please look over these solved cases?
Cc1cc(C#Cc2ccc(C)nc2)c2[nH]c3c(c2c1)CN(C)CC3	7
Cc1cc(CCc2ccc(C)nc2)c2c(c1)c1c(n2C)CCN(C)C1	15
CN1CCc2[nH]c3c(NCc4ccccc4)cccc3c2C1	19
Cc1ccc(C#Cc2cc(Cl)cc3c4c(n(C)c23)CCN(C)C4)cn1	7

Report inhibition at 1 µM for Cc1cc(C#Cc2ccc(C)nc2)c2c(c1)c1c(n2C)CCN(C)C1 please.
14
